System: P. falciparum stage V gametocytes
Design: BacTiter-Glo ATP luminescence viability of purified stage V gametocytes in 384-well plates, per cent inhibition versus DMSO
Conditions: 48 h, 5 µM; inhibitor
About 3,200 (25%) of roughly 13,000 compounds showed an effect of 50% or more. The list shows a part of the results.
Assignment: determine reported % Inhibition for the given compounds.
One number for each entry, in %.

Cc1nc(NCCCn2ccnc2)cc(-c2cncc(-c3ccc(OC(F)(F)F)cc3)c2)n1
9.398
CNS(=O)(=O)Cc1ccc(Nc2nccc(Nc3cccc4c3cnn4C(=O)Nc3ccccc3)n2)cc1
19.26
Cc1cccc2nc(-c3ccc(-c4ccc(CN5CCN(c6ccc(C#N)cn6)CC5)cc4)s3)[nH]c12.O=C(O)C(F)(F)F
1.839

Now, please, on to the next compound.
Fill in reported % Inhibition for this entry: Cc1cc(C(=O)CSc2nc3ccccc3n2-c2ccccc2)c(C)n1C1CCS(=O)(=O)C1 (stereo not shown)
-17.36

* * *

Please respond with reported % Inhibition for every item in the list.
Test system: P. falciparum stage V gametocytes
Parameters: BacTiter-Glo ATP luminescence viability of purified stage V gametocytes in 384-well plates, per cent inhibition versus DMSO
Settings: 48 h, 5 µM; inhibitor
Among all 13,000 compounds or so, about 3,200 (25%) showed an effect of 50% or more. This is one part of the list.
Number plus unit, in that order.

Worked examples follow.
CCCCCCCCN1CCN(CCCCCCNc2c3ccccc3nc3ccccc23)CC1 [TCMDC-138015]
122.1%
CCCCN1CCN(CCCCNc2c3ccccc3nc3ccccc23)CC1 [TCMDC-137569]
97.88%
CN1CC=C(c2c[nH]c3ccc(Oc4ccccc4)cc23)CC1 [TCMDC-138966]
12.83%
N=C(N)c1ccc(NN=Cc2ccc(Oc3ccc(C(=N)N)cc3)cc2)cc1 [TCMDC-137493]
43.38%
Cc1ccc2nc3c(cc(C(=O)NCc4ccccc4)c(=N)n3CCCn3ccnc3)c(=O)n2c1 [TCMDC-124377]
6.883%

Parameter requested: % Inhibition. Apply to each item below.
1. O=C(CNC(=O)c1ccc(O)cc1)Nc1cccc(-c2cccc(-c3nc4ccc(C(F)(F)F)cc4[nH]3)c2)c1 [TCMDC-136816]
2. CCCCN1CCN(CCCNc2c3ccccc3nc3ccccc23)CC1 [TCMDC-137572]
3. O=S(=O)(NCCN1CCCC1)c1cccc(-c2ccc(CNCc3ccc(F)cc3)cc2)c1 [TCMDC-132289]

11.2%
99.41%
105.2%

* * *

Provide the reported % Inhibition of each item.
Tested on: P. falciparum stage V gametocytes
Design: BacTiter-Glo ATP luminescence viability of purified stage V gametocytes in 384-well plates, per cent inhibition versus DMSO
Details: 48 h, 5 µM; inhibitor
Out of some 13,000 compounds screened, about 3,200 (25%) showed an effect of 50% or more. Some of the results follow.
Give bare numbers, in %.

Solved cases below.
Cc1c(Cc2ccccc2Br)cnc2nc(N)nc(N)c12 [TCMDC-137244]
-16.64
O=C(Nc1cccc2ccccc12)N1CCC(NS(=O)(=O)c2cccc(C(F)(F)F)c2)CC1 [TCMDC-139437]
-43.48

Lab note: each compound below needs its % Inhibition filled in.
1. COc1cc(C(F)(F)F)nc2c(CNCCCNc3cc(=O)c4ccccc4[nH]3)scc12 [TCMDC-141145]
2. CCN(CCCN1CCCCC1)c1cc(C)nc(Nc2cc(Cl)cc(Cl)c2)n1 [TCMDC-132455]
3. COc1ccc(-c2cccc(NC(=O)c3ccc(Cl)cc3)c2)cc1CN1CCC(O)CC1 [TCMDC-132606]
4. CS(=O)(=O)c1ccc2c(c1)CCN(CCC1CCC(NC(=O)C(=Cc3cccc(C#N)c3)c3ccc(-c4ccccc4)cc3)CC1)CC2 (centres unmarked) [TCMDC-141427]
5. COc1ccc(-c2cccc(NC(=O)c3cccc(Cl)c3)c2)cc1CN1CCC(O)CC1 [TCMDC-132618]
6. COc1ccc(-c2ccc(NC(=O)c3cccc(Cl)c3)cc2)cc1CN1CCC(O)CC1 [TCMDC-133334]

[-12.37, 8.984, -74.32, 78.58, 87.3, 46.17]

* * *

System: P. falciparum stage V gametocytes
Design: BacTiter-Glo ATP luminescence viability of purified stage V gametocytes in 384-well plates, per cent inhibition versus DMSO
Conditions: 48 h, 5 µM; inhibitor
About 3,200 (25%) of roughly 13,000 compounds showed an effect of 50% or more. This is one part of the list.
Label condition met for high-side % Inhibition (at or above -10%) and condition not met for low-side % Inhibition (below it).

Record excerpt, results attached:
CN1CCC(NCc2ccc(S(=O)(=O)Nc3ccc(Oc4cccc(Cl)c4)cc3)cc2)CC1 [TCMDC-136201]
condition met
O=C(Nc1cccc(N2CCC(NCCCc3ccncc3)CC2)c1)c1cccc(C(F)(F)F)c1 [TCMDC-124659]
condition met
CN1CCC(NCc2ccc(-c3ccc(S(=O)(=O)NCc4ccccc4)cc3)cc2)CC1 [TCMDC-132227]
condition met
CCCCCCCCN1CCCN(C(=O)c2cccc(NC(=O)Nc3ccc4ccccc4c3)c2)CC1 [TCMDC-141690]
condition not met
N[C@@H](CCN1CCC(c2cccc(O)c2)CC1)Cc1ccc(F)c(F)c1 [TCMDC-132126]
condition met

Say whether COc1ccc(-c2cc(NCc3ccc(-n4ccnc4)cc3)nc(Nc3ccccc3)n2)cc1 [TCMDC-133466] shows % Inhibition of -10% or more.
condition met

Form field: % Inhibition at least -10%? Entry: CSc1nc2nc(C)c(Cc3cccc(C(F)(F)F)c3)c(C)n2n1 [TCMDC-123763]
condition not met

Kindly determine if % Inhibition recorded for COc1cc(NC(=O)N2CCOC(CCN3CCC(c4ccccc4)CC3)(c3ccc(Cl)c(Cl)c3)C2)cc(OC)c1OC (centres unmarked) [TCMDC-135349] is above or exactly -10%.
condition not met

* * *

Tested on: P. falciparum stage V gametocytes
Set-up: BacTiter-Glo ATP luminescence viability of purified stage V gametocytes in 384-well plates, per cent inhibition versus DMSO
Conditions: 48 h, 5 µM; inhibitor
Out of some 13,000 compounds screened, about 3,200 (25%) showed an effect of 50% or more. The list shows a part of the results.
Provide the reported % Inhibition of each item.
One number for each entry, in %.

Batch request: % Inhibition for each of the following molecules.
1. CC12CN3CC(C)(CN(C1)C3c1cc(Br)ccc1O)C2O (centres unmarked)
2. CN1CCC(N2CCN(Cc3ccc(-c4ccc(-c5nc6ccccc6[nH]5)s4)cc3)CC2)CC1
3. Cc1cccc2nc(-c3ccc(-c4ccc(CN5CCN(C6CCN(C)CC6)CC5)cc4)s3)[nH]c12

1: -31.33; 2: 67.23; 3: 107

Working through the 4 molecules below one at a time, give % Inhibition for each.
1. Cc1cccc2nc(-c3ccc(-c4cccc(NC(=O)CN5CCN(C)CC5)c4)s3)[nH]c12
2. CC(Sc1n[nH]c(-c2cccs2)n1)C(=O)c1c[nH]c2ccccc12 (centres unmarked)
3. CN(C)CCN(C)Cc1ccc(-c2cccc(NC(=O)c3cccc(C#N)c3)c2)cc1
4. COc1ccc2nc(SC(C)C(=O)c3c[nH]c4ccccc34)[nH]c2c1 (centres unmarked)

[20.22, 53.42, -77.89, 61.61]

* * *

Record form. Attribute: % Inhibition. Fill in for each entry.
Test system: P. falciparum stage V gametocytes
Design: BacTiter-Glo ATP luminescence viability of purified stage V gametocytes in 384-well plates, per cent inhibition versus DMSO
Settings: 48 h, 5 µM; inhibitor
The campaign covered roughly 13,000 compounds. About 3,200 (25%) showed an effect of 50% or more. This is one part of the list.
Answers are plain numbers, in %.

COc1ccc2nccc([C@@H](O)CN3CCC(NCc4cc5ccccn5n4)CC3)c2c1 [TCMDC-141025]
65.1

Dear colleague, could you send me % Inhibition for each of the items below? Thanks.
1. C(=NNc1cc(-c2ccccc2)nc2ccccc12)c1cccnc1 [TCMDC-142052]
2. C=CCOC(=O)N1CCC(CNCc2cccc(-c3ccc(-c4nc5cccc(C)c5[nH]4)cc3)c2)C1.O=C(O)C(F)(F)F (centres unmarked) [TCMDC-133040]
3. Cc1cccc2nc(-c3ccc(-c4cccc(CNCCc5ccncc5)c4)s3)[nH]c12.O=C(O)C(F)(F)F [TCMDC-132853]
4. COc1ccc2nc(C)cc(NCc3cccc4ccccc34)c2c1.Cl [TCMDC-138974]
5. CCCc1c(C(=O)Nc2ccc3c(c2)CCN(C2CCC2)CC3)cnn1-c1ccc(Cl)cc1 [TCMDC-136081]
6. CNCCNCc1cccc(-c2ccc(-c3nc4cccc(C)c4[nH]3)s2)c1.O=C(O)C(F)(F)F [TCMDC-132835]
7. O=C(Nc1nc(-c2ccccn2)cs1)c1ccc(S(=O)(=O)N2CCc3ccccc32)cc1 [TCMDC-125432]
8. COc1ccc2nccc([C@@H](O)CN3CCC(NC(=O)/C=C/c4ccc5ccccc5n4)CC3)c2c1 [TCMDC-141104]

1. -23.81
2. 4.148
3. -22.63
4. -17.8
5. 40.23
6. 98.35
7. 10.03
8. 76.48

Hi, could you look up % Inhibition for each item in my list?
1. c1ccc(-c2cc(NCCCCNc3cc(-c4ccccc4)nc4ccccc34)c3ccccc3n2)cc1 [TCMDC-137738]
2. COc1ccc(CNCc2ccc(-c3ccc(-c4nc5cccc(C)c5[nH]4)s3)cc2)cc1.O=C(O)C(F)(F)F [TCMDC-132727]
3. O=C(Nc1ccc(Cn2ncc(N3CCCNCC3)c(Cl)c2=O)cc1)Nc1cc(Cl)cc(Cl)c1 [TCMDC-133326]
4. O=C(Nc1nc(-c2ccccn2)cs1)c1ccccc1COc1ccccc1 [TCMDC-125336]
5. CSc1ccc(C=CC(=O)NC(=O)c2ccccc2O)cc1 [TCMDC-123758]
6. COc1ccc2nc(-c3ccccc3)cc(NCCCNc3cc(-c4ccccc4)nc4ccc(OC)cc34)c2c1.Cl [TCMDC-137734]

[98.03, 15.75, -9.301, 64.14, 32.47, 124.9]
